Provide the reported remaining at 10 min, 1 µM of each item.
- PROCEDURE_SUMMARY: Stability of compound in rat liver microsomes assessed as parent compound remaining at 1 uM measured at 10 mins in presence of NADPH
- Type: ADME, Microsome
- DETAILS: liver microsomes, read-out: Stabilty
Answer format: number, then unit.

remaining at 10 min, 1 µM measured on C[C@]1(F)[C@H](O)[C@@H](O)[C@H](c2cc(Cc3ccc4c(c3)OCCO4)c(Cl)cc2O)O[C@@H]1CO = 56%

Recorded remaining at 10 min, 1 µM (compound OC[C@H]1O[C@@H](c2cc(Cc3cc4ccccc4s3)c(Cl)cc2O)[C@H](O)[C@@H](O)C1(F)F ): 94%

Entry C[C@]1(F)[C@H](O)[C@@H](O)[C@H](c2cc(Cc3cc4ccccc4s3)c(Cl)cc2O)O[C@@H]1CO ; remaining at 10 min, 1 µM = 15%

Form field remaining at 10 min, 1 µM, entry COc1ccc(Cc2cc([C@@H]3O[C@H](CO)C(F)(F)[C@H](O)[C@H]3O)c(O)cc2Cl)cc1 : 58%
